Each item that follows carries a reported pKd.
# target-desc: T1, human α-CGRP 1-37 (WT) (human, C-terminal amide; N-terminal biotin when captured on the SA chip; 125I-labelled in the radioligand assay)
# T1 construct: also called α-human
# T1 peptide: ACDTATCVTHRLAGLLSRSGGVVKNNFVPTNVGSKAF
# run-description: Biacore, 37°C, Fab over CGRP on SA chip
In simple prose, pKd is minus the logarithm base ten of a concentration in moles per litre.

binder	pKd
G1 variant M52 Fab (Fab, V domains shown, Fab; constant domains as m1; printed L561 read as L56I) VH: EVQLVESGGGLVQPGGSLRLSCAASGFTFSNYWISWVRQAPGKGLEWVAEIRSKSDNAATHYAEAVKGRFTISRDNAKNSLYLQMNSLRAEDTAVYYCTVYFDYGLAIQNYWGQGTLVTVSS VL: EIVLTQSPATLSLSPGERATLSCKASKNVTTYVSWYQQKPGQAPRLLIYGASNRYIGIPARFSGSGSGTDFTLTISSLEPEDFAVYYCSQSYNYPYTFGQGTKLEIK	8.75

Input line: # pKd lookup, item G1 variant M49 Fab (Fab, V domains shown, Fab; constant domains as m1) VH: EVQLVESGGGLVQPGGSLRLSCAASGFTFSNYWISWVRQAPGKGLEWVAEIRSKSDNYATFYAEAVKGRFTISRDNAKNSLYLQMNSLRAEDTAVYYCTVYFDYGLAIQNYWGQGTLVTVSS VL: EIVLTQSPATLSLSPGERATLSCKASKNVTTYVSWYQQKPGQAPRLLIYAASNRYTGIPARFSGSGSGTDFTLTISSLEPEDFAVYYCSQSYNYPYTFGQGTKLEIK
Output line: 8.43

Input line: Sample G1 variant M75 Fab (Fab, V domains shown, Fab; constant domains as m1) VH: EVQLVESGGGLVQPGGSLRLSCAASGFTFSNYWISWVRQAPGKGLEWVAEIRSKSDVSATHYAEAVKGRFTISRDNAKNSLYLQMNSLRAEDTAVYYCTVYFDYGLAIQNYWGQGTLVTVSS VL: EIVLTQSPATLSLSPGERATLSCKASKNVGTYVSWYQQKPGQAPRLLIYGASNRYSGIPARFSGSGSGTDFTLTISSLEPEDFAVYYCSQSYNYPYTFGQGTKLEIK — what was its pKd?
Output line: 8.14
